Origin of measurements: the RNAGym collection of RNA variant scans (doi:10.7554/elife.80360)

B1: Hairpin Ribozyme (parent)
chain: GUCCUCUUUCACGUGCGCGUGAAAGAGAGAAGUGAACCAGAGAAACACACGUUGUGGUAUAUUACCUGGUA

Variants of: B1
assayDetails: self-cleavage, relative activity (ratio to wild type); higher = more cleavage; co-transcriptional

| constructSequence | self-cleavage |
| --- | --- |
| GUCCUCUUUCACGUGCGCGUGAAAGAGAUAAGUCAACCAGAGAAACACACGUUGUGGUAUAUUACCUGGUA [G29U G34C] | 0.0691 |
| GUCCUCUUUCACGUGCGCGUGAAAGAGAGAAGUGAACCGGAGAAACACAUGUUGUGGUAUAUUACCUGGUA [A39G C50U] | 0.148 |
| GUCCUCUUUCACGUGCGCGUGAAAGAGAGAAGUGAACCAGAGAAACAAACGUUGUGGUAUUUUACCUGGUA [C48A A61U] | 0.163 |
| GUCCUCUUUCACGUGCGCGUGAAAGAGAGAAGUGCACCAGAGAAACACACGUUGUGGUAUAUUACCUGUUA [A35C G69U] | 0.189 |
| GUCCUCUUUCACGCGCGCGUGAAAGAGAGAAGUGAACCAGAGAAACACACGUUGUGGUAUACUACCUGGUA [U14C U62C] | 0.0439 |
| GUCCUCUUUCACGUGCGCGUCAAAGAGAGAAGUGAACCAGAGAAACAGACGUUGUGGUAUAUUACCUGGUA [G21C C48G] | 0.184 |
| GGCCUCUUUCACGUGCGCGUGAAAGAGAGAAGUGAAUCAGAGAAACACACGUUGUGGUAUAUUACCUGGUA [U2G C37U] | 0.319 |
| GUCCUCUUUCACGUGCGCGUGUAAGAGAGAAGUGAACCAGAGAAACACACGUUGUGGUAUAUUACCUGAUA [A22U G69A] | 0.42 |
| GUCCUCUUUAGCGUGCGCGUGAAAGAGAGAAGUGAACCAGAGAAACACACGUUGUGGUAUAUUACCUGGUA [C10A A11G] | 0.644 |
| GUCCUCUUUCAGGUGCGCGUGAACGAGAGAAGUGAACCAGAGAAACACACGUUGUGGUAUAUUACCUGGUA [C12G A24C] | 0.613 |
| GUCCUCUUUCACGUGCGCGUGAAAGAGAGAAGUGAACCAGAGAAACUCACGUUUUGGUAUAUUACCUGGUA [A47U G54U] | 0.145 |
